Reported pIC50 values for a set of binders
# System tested: T1, Recombinant cynomolgus monkey sgM-CSF (cynomolgus (Macaca fascicularis), UniProt P09603 33-255 (human entry), limits assumed)
# T1 construct: used also where only 'cynomolgus M-CSF' is printed (ELISA result, SET); also called cynomolgus sgM-CSF; cyno sgM-CSF
# T1 chain: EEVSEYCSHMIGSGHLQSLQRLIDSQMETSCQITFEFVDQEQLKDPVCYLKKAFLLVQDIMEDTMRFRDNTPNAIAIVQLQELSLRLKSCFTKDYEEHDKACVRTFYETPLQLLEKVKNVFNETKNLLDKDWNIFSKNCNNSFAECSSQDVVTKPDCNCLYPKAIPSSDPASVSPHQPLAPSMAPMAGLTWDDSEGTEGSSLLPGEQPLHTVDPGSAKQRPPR
# Procedure text: MSD receptor binding inhibition: 12.5 pM cynomolgus sgM-CSF preincubated with antibody, binding to coated human CSF1-R-Fc
pIC50: −log10 of the molar value.

- Binder: "Laurine, IgG1_D265A (antibody, V domains shown, tested as IgG1 with D265A in the Fc (EU index); Parental antibody of Madeleine, Maelle, Meriem) VH: QVQLQQSGPGLVKPSQTLSLTCAISGDSVSSNSAAWNWIRQSPSRGLEWLGRTYYRSKWKKEYAQSVKSRITINPDTSKNQFSLQLNSVTPEDTAVYYCARDRYYYSAFDYWGQGTLVTVSS VL: DIALTQPASVSGSPGQSITISCTGTSSDVGGYNSVSWYQQHPGKAPKLMIYAVSNRPSGVSNRFSGSKSGNTASLTISGLQAEDEADYYCASYDERFTRVFGGGTKLTVLG"
  pIC50: 11.37
- Binder: "HeRX1-10G1, IgG1 (antibody, V domains shown, tested as IgG1) VH: QVQLQESGPGLVKPSQTLSLTCTVSDYSITSDYAWNWIRQFPGKGLEWMGYISYSGSTSYNPSLKSRITISRDTSKNQFSLQLNSVTAADTAVYYCASFDYAHAMDYWGQGTTVTVSS VL: DIVLTQSPAFLSVTPGEKVTFTCQASQSIGTSIHWYQQKTDQAPKLLIKYASESISGIPSRFSGSGSGTDFTLTISSVEAEDAADYYCQQINSWPTTFGGGTKLEIKR"
  pIC50: 10.56
- Binder: "Madeleine, IgG1_D265A (antibody, V domains shown, tested as IgG1 with D265A in the Fc (EU index)) VH: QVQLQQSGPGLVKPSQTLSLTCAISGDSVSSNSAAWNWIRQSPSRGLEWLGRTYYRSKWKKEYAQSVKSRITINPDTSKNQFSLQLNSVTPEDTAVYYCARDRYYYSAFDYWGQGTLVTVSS VL: QSALTQPASVSGSPGQSITISCTGTSSDVGGYNSVSWYQQHPGKAPKLMIYAVSNRPSGVSNRFSGSKSGNTASLTISGLQAEDEADYYCASYDERFTRVFGGGTKLTVLG"
  pIC50: 11.25
